The measured values listed here are drawn from ChEMBL document CHEMBL5335833.

// reported CC50 per item
# protocol: Cytotoxicity against mouse T-lymphocytes
# Assay type: toxicity, cell-based, T-cell

[
  {
    "compound": "COC1=C2C(=CC3Oc4cccc(O)c4C(=O)C13)O[C@H]1OC=C[C@@]21O (some centres undefined)",
    "readoutUnit": "µM",
    "inequalitySymbol": ">",
    "CC50": 40
  },
  {
    "compound": "COC1=C2C(=CC3Oc4c(OC)cc(Cl)c(OC)c4C(=O)C13)O[C@H]1OC=C[C@@H]21 (some centres undefined)",
    "readoutUnit": "µM",
    "inequalitySymbol": "=",
    "CC50": 12
  },
  {
    "compound": "COc1ccc(CCC(C)(C)O)c2c1C(=O)C1C(O)=C3C(=CC1O2)O[C@H]1OC=C[C@@]31O (some centres undefined)",
    "readoutUnit": "µM",
    "inequalitySymbol": "=",
    "CC50": 14
  },
  {
    "compound": "COC1=C2C(=CC3Oc4ccc(Cl)c(OC)c4C(=O)C13)O[C@H]1O[C@H](OC)C[C@@H]21 (some centres undefined)",
    "readoutUnit": "µM",
    "inequalitySymbol": ">",
    "CC50": 40
  }
]
